- TEST PROTOCOL: GSH reactivity assessed as reaction half life through transition state modeling at pH 7.4
- Format: physicochemical
- CONDITION DETAILS: glutathione (GSH) reaction mixture
Answer each item with its documented half-life.

Data point: `CNC(=O)/C=C/CN1CCOCC1` ; half-life = 28 h

Data point: `N#CN1CCCC1` ; half-life = 2.2 h

Data point: `CNC(=O)CCl` ; half-life = 3.2 h

Data point: `C=CC(=O)NC` ; half-life = 17 h

Data point: `CNC(=O)CBr` ; half-life = < 0.08 h

Data point: `N#Cc1ccccn1` ; half-life = 25 h
